test: Tissue concentrations of capecitabine and its metabolites 2 h after oral capecitabine in CES2-modified mice; format: in vivo, mouse; settings: female Ces2^–/– mice, oral capecitabine 500 mg/kg
parameterMeasured: Colon concentration ratio (metabolite/capecitabine)
// no unit, no text: just the number

I'd like to know its Colon concentration ratio (metabolite/capecitabine). The compound in question is NCC(F)C(=O)O (stereo not shown)
0.12

I'd like to know its Colon concentration ratio (metabolite/capecitabine). The compound in question is O=c1[nH]cc(F)c(=O)[nH]1 [5-FU, 5-fluorouracil, reference compound]
0.14

I'd like to know its Colon concentration ratio (metabolite/capecitabine). The compound in question is `C[C@H]1O[C@@H](n2cc(F)c(N)nc2=O)[C@H](O)[C@@H]1O`
2.0

I'd like to know its Colon concentration ratio (metabolite/capecitabine). The compound in question is `C[C@H]1O[C@@H](n2cc(F)c(=O)[nH]c2=O)[C@H](O)[C@@H]1O`
0.34
